molecular target: T1, rabbit PDGF (rabbit); assay: SPR, Fab fragment; assay format for PDGF not described
T1 construct: Printed only as rabbit PDGF
measurementType: t½ (min)
Report the value in min with no unit label.

binder="bispecific anti-VEGF/anti-PDGF-B Fab fragment 28.02 (Fab, V domains shown) VH: DLQLVESGGGLVKPGGSLRLSCAADGWWFGYTDMSWVRQAPGKGLEWVGSISYKGGHKYLNTKFIGRFTISRDDDTNTLYLQMNSLRAEDTAVYYCARDDGYFDTWGQGTLVTVSS VL: AIHMYQEPSSLSASVGDRVTITCHGSYWLSNYLAWYQQKPGKAPKLLIYDGKEREHGVPSRFSGSGSHEDYTLTISSLQPEDFATYYCQQYRYHPYTFGHGTKVEIKR" unitofmeasurement=min observedvalue=53
binder="bispecific anti-VEGF/anti-PDGF-B Fab fragment RO7113083 (Fab, V domains shown, also called R07113083) VH: DLQLVESGGGLVKPGGSLRLSCAADGWWFGYTDMSWVRQAPGKGLEWVGSISYKGGSTYYNTKFIGRFTISRDDDTNTLYLQMNSLRAEDTAVYYCARDDGYFDTWGQGTLVTVSS VL: AIYMHQEPSSLSASVGDRVTITCHGSYWLSNYLAWYQQKPGKAPKLLIYDGKEREHGVPSRFSGSGSHEDYTLTISSLQPEDFATYYCQQYRYHPYTFGHGTKVEIKR" unitofmeasurement=min observedvalue=59
binder="bispecific anti-VEGF/anti-PDGF-B Fab fragment 28.01 (Fab, V domains shown) VH: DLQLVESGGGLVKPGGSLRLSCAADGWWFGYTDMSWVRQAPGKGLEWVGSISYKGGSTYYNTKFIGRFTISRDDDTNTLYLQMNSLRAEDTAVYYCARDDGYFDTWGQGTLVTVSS VL: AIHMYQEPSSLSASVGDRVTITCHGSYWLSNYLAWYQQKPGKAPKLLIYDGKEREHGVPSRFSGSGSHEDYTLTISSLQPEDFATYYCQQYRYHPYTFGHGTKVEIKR" unitofmeasurement=min observedvalue=67

Give reported t½ value for bispecific anti-VEGF/anti-PDGF-B Fab fragment 28.07 (Fab, V domains shown) VH: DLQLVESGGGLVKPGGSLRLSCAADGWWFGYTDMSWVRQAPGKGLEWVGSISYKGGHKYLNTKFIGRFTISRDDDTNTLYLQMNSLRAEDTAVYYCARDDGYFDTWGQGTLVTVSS VL: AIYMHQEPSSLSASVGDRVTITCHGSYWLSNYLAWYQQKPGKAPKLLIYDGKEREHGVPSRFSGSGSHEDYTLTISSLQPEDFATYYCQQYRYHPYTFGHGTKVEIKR
52

Indicate the recorded t½ value for this binder: bispecific anti-VEGF/anti-PDGF-B Fab fragment P1AA9124 (Fab, V domains shown) VH: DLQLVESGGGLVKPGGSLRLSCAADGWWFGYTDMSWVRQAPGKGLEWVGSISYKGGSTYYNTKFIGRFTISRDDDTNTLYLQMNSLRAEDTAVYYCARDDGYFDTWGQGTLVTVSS VL: AIQMTQSPSSLSASVGDRVTITCHGSYWLSNYLAWYQQKPGKAPKLLIYDGKEREHGVPSRFSGSGSHEDYTLTISSLQPEDFATYYCQQYRYHPYTFGQGTKLEIKR
48
